Molecular target: Calmodulin-1 (Homo sapiens)
Assay: calcium-bound CALM1 binders on microarrays, profiling panel, artefact control for SMM control-protein annotation, biochemical, small-molecule microarray, Cy5-labelled CALM1, plus calcium (AID 1112);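 note: score merges spot fluorescence with signal to noise from triplicate slides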
Details: Cy5-CALM1 binding fluorescence, higher = more signal
composite z-score of -0.6 or higher: 1. Under -0.6: -1.

- CCCCCN1CC=CC23O[C@@H]4C=CCOC(=O)[C@@H]4[C@H]2C(=O)N(C(CO)C(C)C)[C@@H]3C1=O (some centres not stated): -1
- Cc1cc2c(nc1C)CCCN2CC(C)ON=C1[C@H]2CCn3c(=O)n(-c4ccccc4)c(=O)n3[C@H]2[C@H](O)[C@@H]2O[C@H]12 (some centres not stated): 1
- COCCOC(=O)N1C(=O)[C@@]2(c3cc(C#CCNC(N)=O)ccc31)[C@H](c1ccc(O)cc1)N1[C@H](c3ccccc3)[C@H](c3ccccc3)OC(=O)[C@H]1[C@@H]2C(=O)N1CCCCCCC1: 1
- O=C1[C@H]2[C@H]3[C@H](O)[C@H](O)CC(=NO[C@@H]4O[C@H](CO)[C@@H](O)[C@H](O)[C@H]4O)[C@H]3CC[C@H]2C(=O)N1Cc1ccc2c(c1)OCO2: 1

Note: attention shifts to another entry.
Task: Is reported composite z-score greater than or equal to -0.6 here: "COCC1=C2[C@@H](CCc3ccccc3)OB(O)C[C@@H]2n2c(=O)n(-c3ccccc3)c(=O)n2C1"
Result: 1

====

Assay: binders of probe aFGF10 on microarray, primary screen, stem cell growth factor project, biochemical, small-molecule microarray, fluorescence 635/667 (AID 1071);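 note: score merges 667 nm spot intensity and signal to noise from triplicate slides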
Details: higher = more signal
quantity: composite z-score
Note: the reply should be a number with no unit written.

Below: 10 molecules and their reported composite z-score.
- CO[C@@H]1COC(=O)CC=C[C@@H](C)[C@@H]2C=C[C@@H](O)[C@@H](COC(=O)CC=C[C@H]1C)O2: -0.251
- CC(C)=CCCC(C)=CCON=C1[C@H]2CCn3c(=O)n(Cc4cc5c(cc4Cl)OCO5)c(=O)n3[C@H]2[C@H](O)[C@@H]2O[C@H]12: 0.262
- O=C1C[C@@H](O)[C@@H](O)[C@@H]2[C@@H]3C(=O)N(c4ccc(F)cc4F)C(=O)[C@@H]3CC[C@@H]12: 0.315
- CC(CCC(=O)OC[C@H]1O[C@H](C#Cc2ccccc2)C=C[C@@H]1Oc1ccc(C)cc1)=NOC[C@@H](O)COCc1ccco1: -3.02
- O=C1C[C@@H](O)[C@@H](O)[C@@H]2[C@@H]3C(=O)N(c4cccc(Oc5ccccc5)c4)C(=O)[C@@H]3CC[C@@H]12: 0.516
- CO[C@H]1COC(=O)[C@H](C)COC(=O)CC=C[C@@H](C)[C@H](OC)COC(=O)CC=C[C@@H]1C: -0.0247
- CC(C)(C)N1C(=O)[C@H]2[C@H]3[C@H](O)[C@H](O)CC(=NOCc4ccccc4)[C@@H]3CC[C@H]2C1=O: 0.805
- CN1C(=O)C2C(C1=O)C1C=C(CCCO)C2C(c2ccc(CN3CCCC3)cc2)N1C (centres undefined): -0.302
- O=C1C[C@]2(c3ccc([N+](=O)[O-])cc3)C(=O)N(CCN3CCOCC3)c3cc(CO)ccc3[C@H]2N1CC12CC3CC(CC(C3)C1)C2: -0.164
- COC(=O)[C@@]1(Cc2ccc(OC)cc2)[C@H]2c3cc(C(=O)N4CCCC4)n(Cc4cc(F)c(F)c(F)c4)c3C[C@H]2CN1C(=O)c1ccccc1: 1.19

Task: Look up composite z-score for this molecule: "Cc1ccc(S[C@]2(C(=O)NCC(F)(F)F)CC(=O)N(Cc3ccccc3Cl)[C@@H]2c2ccc(CO)cc2I)cc1"
Result: 0.494

Task: Using the record for CS(=O)(=O)CCOC(=O)C1=CC(CCCO)=CC(c2cccs2)N(Cc2cccc(OC(F)(F)F)c2)C=C1C(=O)OCCS(C)(=O)=O (centres undefined) , report its composite z-score.
Result: 0.0557

Task: Given the molecule "CCOC(=O)C[C@H]1[C@H](OC(=O)c2cc3ccccc3oc2=O)[C@@H](NC(=O)c2ccc3ccccc3n2)c2cc(OCCCO)ccc2N1C(=O)c1ccccc1" , what is its reported composite z-score?
Result: 0.706

Task: Need composite z-score, item "CCCC=C(CCC)[C@@H](NC(=O)c1ccc(-c2ccccc2)cc1)c1ccc(C(=O)OC)cc1"
Result: 0.0375

Task: Form field: reported composite z-score of "COCCCNC(=O)[C@]1(CCC(=O)OC(C)(C)C)N=C(c2ccc(OCCCO)cc2)O[C@@H]1c1ccccc1N=[N+]=[N-]"
Result: 0.891
